The reader will find reported Cmax values listed item by item below.
# Protocol: Single oral dose human plasma pharmacokinetics of D, DA and DOH after Cogni.Q
# Type: in vivo
# Condition Parameters: human, plasma, oral, 4 Cogni.Q vegicaps, subject S12 (169 lb); read-out: Cmax
Give the value, in units of nM, as a plain number.

[
  {
    "Compound": "CC1(C)Oc2cc3oc(=O)ccc3cc2C[C@@H]1O",
    "Number": 2590
  },
  {
    "Compound": "CC(C)=CC(=O)O[C@H]1Cc2cc3ccc(=O)oc3cc2OC1(C)C",
    "Number": 1.3
  }
]

Quick one: Cmax for C/C=C(/C)C(=O)O[C@H]1Cc2cc3ccc(=O)oc3cc2OC1(C)C [DA, decursinol angelate] ?
16.8

----------
# Protocol: Single oral dose human plasma pharmacokinetics of D, DA and DOH after Cogni.Q
# Format: in vivo
# Condition Parameters: both sexes; all human subjects n = 20; single oral dose 4 Cogni.Q vegicaps (119 mg D, 77 mg DA); plasma; read-out: Tmax, h, Mean (SD)
The reader will find reported Tmax values listed item by item below.
Give the value, in units of h, as a plain number.

[
  {
    "Molecule": "CC(C)=CC(=O)O[C@H]1Cc2cc3ccc(=O)oc3cc2OC1(C)C [D, decursin]",
    "Tmax (h)": 2.1
  }
]

Now turn to the next molecule.
Quick one: Tmax for CC1(C)Oc2cc3oc(=O)ccc3cc2C[C@@H]1O [DOH, decursinol] ?
3.3

----------
# Protocol: Single oral dose human plasma pharmacokinetics of D, DA and DOH after Cogni.Q
# Type: in vivo
# Condition Parameters: human, plasma, oral, 4 Cogni.Q vegicaps, subject S3 (170 lb); read-out: AUC0-48h
The reader will find reported AUC(0-t) values listed item by item below.

[
  {
    "Compound": "CC(C)=CC(=O)O[C@H]1Cc2cc3ccc(=O)oc3cc2OC1(C)C [D, decursin]",
    "Result": "0.0098 µM·h"
  },
  {
    "Compound": "CC1(C)Oc2cc3oc(=O)ccc3cc2C[C@@H]1O [DOH, decursinol]",
    "Result": "8.31 µM·h"
  }
]

Now turn to the next compound.
Quick one: AUC(0-t) for C/C=C(/C)C(=O)O[C@H]1Cc2cc3ccc(=O)oc3cc2OC1(C)C [DA, decursinol angelate] ?
0.142 µM·h

----------
The reader will find reported AUC(0-t) values listed item by item below.
# Protocol: Single oral dose human plasma pharmacokinetics of D, DA and DOH after Cogni.Q
# Assay type: in vivo
# Condition Parameters: human, plasma, oral, 4 Cogni.Q vegicaps, subject S4 (170 lb); read-out: AUC0-48h
Give the value, in units of µM·h, as a plain number.

[
  {
    "Compound": "C/C=C(/C)C(=O)O[C@H]1Cc2cc3ccc(=O)oc3cc2OC1(C)C [DA, decursinol angelate]",
    "Measure Unit": "µM·h",
    "AUC(0-t)": 1.06
  },
  {
    "Compound": "CC1(C)Oc2cc3oc(=O)ccc3cc2C[C@@H]1O",
    "Measure Unit": "µM·h",
    "AUC(0-t)": 63.7
  }
]

Now turn to the next compound.
Quick one: AUC(0-t) for `CC(C)=CC(=O)O[C@H]1Cc2cc3ccc(=O)oc3cc2OC1(C)C` ?
0.119

----------
# Protocol: Single oral dose human plasma pharmacokinetics of D, DA and DOH after Cogni.Q
# Assay type: in vivo
# Condition Parameters: human, plasma, oral, 4 Cogni.Q vegicaps, subject S6 (120 lb); read-out: AUC0-48h
Value Kind: AUC(0-t)

[
  {
    "Compound": "CC(C)=CC(=O)O[C@H]1Cc2cc3ccc(=O)oc3cc2OC1(C)C",
    "AUC(0-t)": "0.094 µM·h"
  }
]

Quick one: AUC(0-t) for `CC1(C)Oc2cc3oc(=O)ccc3cc2C[C@@H]1O` ?
37.5 µM·h

Now this one: C/C=C(/C)C(=O)O[C@H]1Cc2cc3ccc(=O)oc3cc2OC1(C)C [DA, decursinol angelate]
0.696 µM·h

----------
The reader will find reported Cmax values listed item by item below.
# Protocol: Single oral dose human plasma pharmacokinetics of D, DA and DOH after Cogni.Q
# Assay type: in vivo
# Condition Parameters: male, human, plasma, oral, 4 Cogni.Q vegicaps, Men n=10 (S1 Table); read-out: Cmax, nM, Mean
Give the value, in units of nM, as a plain number.

Answered examples (2):
[
  {
    "Molecule": "CC1(C)Oc2cc3oc(=O)ccc3cc2C[C@@H]1O [DOH, decursinol]",
    "Value Kind": "Cmax",
    "Measure Unit": "nM",
    "Number": 2350
  },
  {
    "Molecule": "CC(C)=CC(=O)O[C@H]1Cc2cc3ccc(=O)oc3cc2OC1(C)C [D, decursin]",
    "Value Kind": "Cmax",
    "Measure Unit": "nM",
    "Number": 5.22
  }
]

Now turn to the next molecule.
Quick one: Cmax for C/C=C(/C)C(=O)O[C@H]1Cc2cc3ccc(=O)oc3cc2OC1(C)C [DA, decursinol angelate] ?
52.2

----------
# Protocol: Single oral dose human plasma pharmacokinetics of D, DA and DOH after Cogni.Q
# Format: in vivo
# Condition Parameters: human, plasma, oral, 4 Cogni.Q vegicaps, subject S6 (120 lb); read-out: Terminal t1/2, h (converted)
Value Kind: half-life (h)
Give the value, in units of h, as a plain number.

Answered examples (2):
[
  {
    "Compound": "CC1(C)Oc2cc3oc(=O)ccc3cc2C[C@@H]1O",
    "Measure Unit": "h",
    "half-life": 7.2
  },
  {
    "Compound": "CC(C)=CC(=O)O[C@H]1Cc2cc3ccc(=O)oc3cc2OC1(C)C",
    "Measure Unit": "h",
    "half-life": 12.8
  }
]

Now turn to the next compound.
Quick one: half-life for C/C=C(/C)C(=O)O[C@H]1Cc2cc3ccc(=O)oc3cc2OC1(C)C [DA, decursinol angelate] ?
16.2

----------
# Protocol: Single oral dose human plasma pharmacokinetics of D, DA and DOH after Cogni.Q
# Assay type: in vivo
# Condition Parameters: human, plasma, oral, 4 Cogni.Q vegicaps, subject S13 (192 lb); read-out: Terminal t1/2, h (converted)
Value Kind: half-life (h)
Give the value, in units of h, as a plain number.

[
  {
    "Compound": "CC1(C)Oc2cc3oc(=O)ccc3cc2C[C@@H]1O",
    "Measure Unit": "h",
    "Number": 6
  }
]

Quick one: half-life for C/C=C(/C)C(=O)O[C@H]1Cc2cc3ccc(=O)oc3cc2OC1(C)C [DA, decursinol angelate] ?
12.7

Now this one: `CC(C)=CC(=O)O[C@H]1Cc2cc3ccc(=O)oc3cc2OC1(C)C`
25.8

----------
# Protocol: Single oral dose human plasma pharmacokinetics of D, DA and DOH after Cogni.Q
# Assay type: in vivo
# Condition Parameters: human, plasma, oral, 4 Cogni.Q vegicaps, subject S11 (178 lb); read-out: Cmax
Value Kind: Cmax (nM)
Give the value, in units of nM, as a plain number.

[
  {
    "Compound": "CC1(C)Oc2cc3oc(=O)ccc3cc2C[C@@H]1O",
    "Value Kind": "Cmax",
    "Number": 3420
  },
  {
    "Compound": "C/C=C(/C)C(=O)O[C@H]1Cc2cc3ccc(=O)oc3cc2OC1(C)C [DA, decursinol angelate]",
    "Value Kind": "Cmax",
    "Number": 29.7
  }
]

Quick one: Cmax for `CC(C)=CC(=O)O[C@H]1Cc2cc3ccc(=O)oc3cc2OC1(C)C` ?
2.5

----------
The reader will find reported AUC(0-t) values listed item by item below.
# Protocol: Single oral dose human plasma pharmacokinetics of D, DA and DOH after Cogni.Q
# Format: in vivo
# Condition Parameters: both sexes, human; twenty healthy subjects; single oral dose Cogni.Q; plasma (abstract); read-out: mean area under the curve (AUC0-48h)
Answer format reminder: number followed by unit.

[
  {
    "Sample Smiles": "CC1(C)Oc2cc3oc(=O)ccc3cc2C[C@@H]1O",
    "AUC(0-t)": "27.6 µM·h"
  }
]

Now turn to the next compound.
Quick one: AUC(0-t) for `CC(C)=CC(=O)O[C@H]1Cc2cc3ccc(=O)oc3cc2OC1(C)C` ?
0.037 µM·h

----------
The reader will find reported AUC(0-t) values listed item by item below.
# Protocol: Single oral dose human plasma pharmacokinetics of D, DA and DOH after Cogni.Q
# Assay type: in vivo
# Condition Parameters: human, plasma, oral, 4 Cogni.Q vegicaps, subject S14 (200 lb); read-out: AUC0-48h
Give the value, in units of µM·h, as a plain number.

Answered examples (2):
[
  {
    "Compound": "CC(C)=CC(=O)O[C@H]1Cc2cc3ccc(=O)oc3cc2OC1(C)C",
    "AUC(0-t) / µM·h": 0.0215
  },
  {
    "Compound": "CC1(C)Oc2cc3oc(=O)ccc3cc2C[C@@H]1O",
    "AUC(0-t) / µM·h": 25.7
  }
]

Now turn to the next compound.
Quick one: AUC(0-t) for C/C=C(/C)C(=O)O[C@H]1Cc2cc3ccc(=O)oc3cc2OC1(C)C [DA, decursinol angelate] ?
0.0964
